# subject-of-test: human A3AR (Homo sapiens, UniProt P0DMS8)
# Construct: expressed in transfected cells
# Sequence (P0DMS8 1-318): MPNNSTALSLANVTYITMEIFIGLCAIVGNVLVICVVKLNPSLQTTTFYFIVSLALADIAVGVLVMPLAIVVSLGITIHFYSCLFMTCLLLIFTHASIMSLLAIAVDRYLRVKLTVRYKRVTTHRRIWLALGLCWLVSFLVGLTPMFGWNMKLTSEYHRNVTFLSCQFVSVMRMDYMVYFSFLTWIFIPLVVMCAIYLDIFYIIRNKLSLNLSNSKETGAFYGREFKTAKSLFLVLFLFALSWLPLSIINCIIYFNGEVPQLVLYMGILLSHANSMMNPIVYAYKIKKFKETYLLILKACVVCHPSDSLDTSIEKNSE
# procedure-summary: LOPAC library primary screen: single concentration (10 μM) inhibition of 25 nM CA200645 binding, PHERAstar FS
Structures can show the parent of a compound that is named as a salt.
% 25 nM CA200645 binding values for the compounds below.

Consider the worked cases shown below.
>>> df
                                   compound   assay_result
0  O=C(c1ccc(F)cc1)C1CCN(CCn2c(=O)[nH]c3ccccc3c2=O)CC1 [Ketanserin tartrate]  100.1 ± 15.2%
1  CCCNC(=O)NS(=O)(=O)c1ccc(Cl)cc1 [Chlorpropamide]    97.6 ± 7.8%
2  Nc1nc(Cl)nc2c1ncn2[C@@H]1O[C@H](COP(=O)(O)OP(=O)(O)OP(=O)(O)O)C(O)C1O (stereo in doubt)   89.5 ± 23.0%
3  Cl.Fc1ccc(CN(C2=NCCN2)c2c(Cl)cccc2Cl)cc1 [IMID-4F hydrochloride]    97.3 ± 5.7%
4  COc1ccc2c(c1OC)C(=O)OC2C1c2cc3c(cc2CCN1C)OCO3 (single isomer, unassigned; (+)) [(+)-Hydrastine]   95.9 ± 10.1%

## Task Please report the measured % 25 nM CA200645 binding for O=C(O)CN(CCN(CC(=O)O)CC(=O)O)CCN(CC(=O)O)CC(=O)O [Diethylenetriaminepentaacetic acid]
## Result 99.2 ± 10.9%

## Task Give the measured % 25 nM CA200645 binding for CC(=O)NBr [N-Bromoacetamide]
## Result 97.9 ± 5.0%

## Task Query % 25 nM CA200645 binding for c1ccc2c(c1)CC(N1CCN(c3cccc4c3OCCO4)CC1)C2 [S15535]
## Result 97.0 ± 1.3%

---

# subject-of-test: human A3AR (Homo sapiens, UniProt P0DMS8)
# Construct: expressed in transfected cells
# procedure-summary: LOPAC library primary screen: single concentration (10 μM) inhibition of 25 nM CA200645 binding, PHERAstar FS
Counter-ions that a name gives are not always drawn.
readout-label: % 25 nM CA200645 binding (%)
Output spec: scalar in %, unitless text.

Recorded results for 3 molecules are shown here.
>>> df
                                   molecule  assay_result
0  NC(=NCc1ccccc1)NC(=O)c1nc(Cl)c(N)nc1N [Benzamil hydrochloride]          95.3
1  CN(C)c1ccc(O)c2c1C[C@H]1C[C@H]3[C@H](N(C)C)C(O)=C(C(N)=O)C(=O)[C@@]3(O)C(O)=C1C2=O [Minocycline hydrochloride]         101.7
2  Cl.Clc1ccc(Cn2c(CN3CCCC3)nc3ccccc32)cc1 [Clemizole hydrochloride]          99.7

## Task # assay system human A3AR (Homo sapiens, UniProt P0DMS8): give % 25 nM CA200645 binding of CNc1cc(NS(=O)(=O)c2ccc(N)cc2)nc(NC)n1.Cl.Cl [Ro 04-6790 dihydrochloride]
## Result 82.1

## Task Fetch value of % 25 nM CA200645 binding on human A3AR (Homo sapiens, UniProt P0DMS8) for COc1ccccc1N1CCNCC1.Cl .
## Result 114.8

## Task For human A3AR (Homo sapiens, UniProt P0DMS8), give the measured % 25 nM CA200645 binding of the entry N=C(N)N1CCc2ccccc2C1 [Debrisoquin sulfate]
## Result 81.0

## Task Tell me % 25 nM CA200645 binding of Cl.Nc1c2c(nc3ccccc13)CCCC2 when tested on human A3AR (Homo sapiens, UniProt P0DMS8).
## Result 100.2

## Task # assay system human A3AR (Homo sapiens, UniProt P0DMS8): give % 25 nM CA200645 binding of CC1=C(/C=C/C(C)=C/C=C/C(C)=C/C(=O)O)C(C)(C)CCC1
## Result 93.6

## Task Report % 25 nM CA200645 binding under test system human A3AR (Homo sapiens, UniProt P0DMS8) for N[C@@H](Cn1oc(=O)[nH]c1=O)C(=O)O [(+)-Quisqualic acid] .
## Result 106.4

## Task Enter measured % 25 nM CA200645 binding, system human A3AR (Homo sapiens, UniProt P0DMS8), for the molecule shown: COc1ccccc1OCCNCC(O)COc1cccc2[nH]c3ccccc3c12 (centres unmarked)
## Result 100.8

## Task Please report % 25 nM CA200645 binding with human A3AR (Homo sapiens, UniProt P0DMS8) for item C[N+]1(C)CCc2cc3c(cc2[C@H]1[C@@H]1OC(=O)c2c1ccc1c2OCO1)OCO3.[Br-] [(-)-Bicuculline methbromide, 1(S), 9(R)] .
## Result 67.4

## Task Under human A3AR (Homo sapiens, UniProt P0DMS8): report % 25 nM CA200645 binding of CCCCC1(C2CCCC2)Cc2cc(OCC(=O)O)c(Cl)c(Cl)c2C1=O (stereo in doubt) [R(+)-Butylindazone] .
## Result 91.2

## Task Recall the reported % 25 nM CA200645 binding of CC1COc2c(N3CCN(C)CC3)c(F)cc3c(=O)c(C(=O)O)cn1c23 (centres unmarked) when tested on human A3AR (Homo sapiens, UniProt P0DMS8).
## Result 93.4

## Task Give % 25 nM CA200645 binding only, for CC(C)(NS(=O)(=O)c1ccc(Oc2ccc(F)cc2)cc1)C(=O)NO , using human A3AR (Homo sapiens, UniProt P0DMS8) data.
## Result 98.7

## Task # return % 25 nM CA200645 binding of CCN(CC)CCNC(=O)c1ccc(N)cc1 [Procainamide hydrochloride] (system: human A3AR (Homo sapiens, UniProt P0DMS8))
## Result 89.6

## Task Find the measured % 25 nM CA200645 binding of CN1CCN(CCCN2c3ccccc3Sc3ccc(Cl)cc32)CC1 [Prochlorperazine dimaleate] with human A3AR (Homo sapiens, UniProt P0DMS8) as test system.
## Result 90.4

## Task Specify % 25 nM CA200645 binding for N[C@@H]1[C@H]2CN(c3nc4c(cc3F)c(=O)c(C(=O)O)cn4-c3ccc(F)cc3F)C[C@@H]12 [Trovafloxacin mesylate] , system human A3AR (Homo sapiens, UniProt P0DMS8).
## Result 94.4

---

Quick reference: β2AR % Total binding at 10 μM of the listed items.
# subject-of-test: β2AR (Homo sapiens)
# Construct: expressed in transfected cells
# Sequence (P07550 whole entry): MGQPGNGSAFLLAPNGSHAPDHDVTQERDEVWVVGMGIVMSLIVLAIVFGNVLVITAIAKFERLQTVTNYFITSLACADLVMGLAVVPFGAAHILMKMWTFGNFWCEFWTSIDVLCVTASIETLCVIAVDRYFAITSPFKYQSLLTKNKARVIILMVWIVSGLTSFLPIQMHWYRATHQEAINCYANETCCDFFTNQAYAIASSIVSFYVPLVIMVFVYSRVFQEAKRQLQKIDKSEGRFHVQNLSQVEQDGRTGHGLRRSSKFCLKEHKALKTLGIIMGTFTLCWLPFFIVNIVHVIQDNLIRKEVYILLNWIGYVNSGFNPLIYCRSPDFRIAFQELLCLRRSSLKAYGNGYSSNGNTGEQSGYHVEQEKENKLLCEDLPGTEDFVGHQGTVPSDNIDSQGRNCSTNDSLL
# procedure-summary: HTS (PHERAstar FS) fluorescent ligand competition binding in live CHO cells, 10 nM BODIPY-TMR-CGP tracer
# experimental-parameters: 10 μM compound, 10 nM BODIPY-TMR-CGP, mean ± SEM, n=3

Example cases with answers are listed next.
In [3]: df
Out[3]:
                                   molecule   assay_result
0  Oc1ccc(/C=C/c2ccc(/C=C/c3ccc(O)cc3)c(Br)c2)cc1    95.8 ± 5.5%
1  CC1=C(/C=C/C(C)=C/C=C/C(C)=C/C(=O)Nc2ccc(O)cc2)C(C)(C)CCC1 [Retinoic acid p-hydroxyanilide]   102.7 ± 5.1%
2  CN(C)S(=O)(=O)c1ccc2c(c1)/C(=C/c1cc3c([nH]1)CCCC3)C(=O)N2  128.4 ± 18.4%

## Task Consider the molecule Nc1nc2ccc(Cl)cc2c2nc(-c3ccco3)nn12 tested on β2AR (Homo sapiens); state its β2AR % Total binding at 10 μM.
## Result 115.4 ± 5.0%

---

# subject-of-test: human A3AR (Homo sapiens, UniProt P0DMS8)
# Construct: expressed in transfected cells
# procedure-summary: LOPAC library primary screen: single concentration (10 μM) inhibition of 25 nM CA200645 binding, PHERAstar FS
Structures can show the parent of a compound that is named as a salt.
Reported values of % 25 nM CA200645 binding for individual entries
Output should be the measured figure followed by the unit it is expressed in.

Answered cases to consult:
>>> df
                                   molecule   assay_result
0  Oc1ccc2c3c1O[C@H]1c4oc5ccccc5c4C[C@@]4(O)[C@@H](C2)N(CC2CC2)CC[C@]314 [Naltriben methanesulfonate]   106.9 ± 8.0%
1  NC1=NCC2c3ccccc3Cc3ccccc3N12 (centres unmarked) [Epinastine hydrochloride]   96.6 ± 14.2%
2  O.c1cnc2c(c1)ccc1cccnc12 [1,10-Phenanthroline monohydrate]   90.7 ± 13.0%
3  CC(C)COC(=O)OCN1C(=O)CN(CCN2CC(=O)N(COC(=O)OCC(C)C)C(=O)C2)CC1=O   111.5 ± 7.6%
4  CC1=NS(=O)(=O)c2cc(Cl)ccc2N1 [Diazoxide]  101.5 ± 12.2%
5  C[C@]12CCC(=O)C=C1CC[C@@H]1[C@@H]2C(=O)C[C@@]2(C)[C@H]1CC[C@]2(O)C(=O)CO    94.0 ± 5.3%
6  CN(C)C/C=C(/c1ccc(Br)cc1)c1cccnc1 [Zimelidine dihydrochloride]    92.5 ± 9.4%
7  CCCCCCCCCCCCCCCCCCN(CCCCCCCCCCCCCCCCCC)CCCN(CCO)CCO  100.2 ± 21.9%

## Task Answer with the recorded % 25 nM CA200645 binding of Cn1ccc2cc3c(cc21)CCN3C(=O)Nc1cccnc1 [SB 206553 hydrochloride] only.
## Result 60.7 ± 9.3%

## Task Report % 25 nM CA200645 binding for CC(C)C(=O)Nc1ccc([N+](=O)[O-])c(C(F)(F)F)c1 [Flutamide]
## Result 84.4 ± 23.0%

## Task Find the measured % 25 nM CA200645 binding of C=CCN1C[C@H](C)N([C@H](c2ccc(C(=O)N(CC)CC)cc2)c2cccc(OC)c2)C[C@H]1C and report it.
## Result 94.8 ± 9.3%

## Task # return recorded % 25 nM CA200645 binding for entry COc1ccc(CNC(=O)/C=C/c2ccc3[nH]cc(CCN(C)C)c3c2)cc1
## Result 100.9 ± 13.0%

## Task Return % 25 nM CA200645 binding (reported value) for this molecule: CN1CCN(C2=Nc3ccccc3Oc3ccc(Cl)cc32)CC1 [Loxapine succinate]
## Result 80.2 ± 12.7%
